- target: CCR5 (Homo sapiens, UniProt P51681)
- Sequence (P51681 whole entry): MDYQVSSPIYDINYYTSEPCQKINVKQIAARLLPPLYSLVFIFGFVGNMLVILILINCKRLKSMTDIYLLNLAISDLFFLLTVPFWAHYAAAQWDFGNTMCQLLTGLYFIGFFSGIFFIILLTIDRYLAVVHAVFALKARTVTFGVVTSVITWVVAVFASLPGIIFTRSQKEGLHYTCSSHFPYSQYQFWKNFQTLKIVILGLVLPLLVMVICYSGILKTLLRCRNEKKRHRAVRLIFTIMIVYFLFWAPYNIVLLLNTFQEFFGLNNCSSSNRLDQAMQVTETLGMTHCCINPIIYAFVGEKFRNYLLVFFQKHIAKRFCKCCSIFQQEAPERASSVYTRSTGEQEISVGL
- methodNotes: Human CCR5 receptor-ligand binding (RANTES) assay
- Design: expressed in transfected cells
- reportedConditions: 125I RANTES 0.1 nM, CHO-Gα16-hCCR5 cells
property: IC50 (µM)

Cc1ncnc(C)c1C(=O)N1CC2CN(CCC3(c4cccc(F)c4)CCN(C(=O)c4ccccc4)CC3)CC2C1 (stereo not shown) [I-3]: 0.0776
Cc1ncnc(C)c1C(=O)N1CC2CN(CCC3(c4ccccc4)CN(S(=O)(=O)C4CCCC4)C3)CC2C1 (stereo not shown) [II-22]: 0.0271

(P) Cc1ncnc(C)c1C(=O)N1CC2CN(CCC(c3cccc(F)c3)C3CN(S(=O)(=O)c4cccc(F)c4)C3)CC2C1 (stereo not shown) [IV-14]
(Q) COC(=O)N1CCC(C(CCN2CC3CN(C(=O)c4c(C)ncnc4C)CC3C2)c2ccccc2)CC1 (stereo not shown) [V-7]
Qu. Please let me know which one, P or Q , has a lower measured IC50 value. Answer format: the label of the selected item.
Ans. P
(P: 0.0386 µM, Q: 0.102 µM)

====

- target: UniProt P51681
- methodNotes: Chemotaxis assay with L1.2hCCR5 cells
- Type: cell-based
- Set-up: expressed in transfected cells
- reportedConditions: Inhibition of RANTES stimulated chemotaxis
property: pIC50
Just so you know, pIC50 here is -log10 of the concentration in molar units; reply with that number alone.

pIC50 for Cc1ncnc(C)c1C(=O)N1CC2CN(CCC(c3ccccc3)C3CCN(S(C)(=O)=O)CC3)CC2C1 (stereo not shown) [V-12] is 6.12

====

- target: UniProt:P51681
- methodNotes: Human CCR5 receptor-ligand binding (RANTES) assay
- Design: expressed in transfected cells
- reportedConditions: 125I RANTES 0.1 nM, CHO-Gα16-hCCR5 cells
- Procedure: The construct was transfected into CHO-Gα16 cells by using Fugene Reagent (Roche). Adherent cells in […] tissue culture flask (˜90% confluent) were harvested using 1 mM EDTA in PBS (phosphate-buffered saline) without Ca^2+ and Mg^2+. Cells were washed twice with PBS containing no Ca^2+ and Mg^2+. […] Total binding was determined with control wells added with radioisotope and buffer and the non-specific binding was determined using an excess cold RANTES to some of the control wells. […]
property: IC50 (nM)

Cc1ncnc(C)c1C(=O)N1CC2CN(CCC3(c4ccccc4)CN(C(=O)C4CCC(F)(F)CC4)C3)CC2C1 (centres unmarked): 18.8

(a) Cc1ncnc(C)c1C(=O)N1CC2CN(CCC3(c4ccccc4)CN(C(=O)CC4CCCC4)C3)CC2C1 (centres unmarked)
(b) Cc1ncnc(C)c1C(=O)N1CC2CN(CCC3(c4ccccc4)CN(C(=O)C4(C(F)(F)F)CC4)C3)CC2C1 (centres unmarked)
(c) Cc1ncnc(C)c1C(=O)N1CC2CN(CCC3(c4ccccc4)CN(S(=O)(=O)C(C)C)C3)CC2C1 (centres unmarked)
Qu. Sort low-to-high on IC50, please. // format: requested-order list of labels
Ans. a, b, c

(I) Cc1ncnc(C)c1C(=O)N1CC2CN(CCC3(c4ccccc4)CCN(C(=O)OC(C)(C)C)CC3)CC2C1 (centres unmarked)
(II) Cc1ncnc(C)c1C(=O)N1CC2CN(CCC(c3ccccc3)C3CN(C(=O)C(C)C)C3)CC2C1 (centres unmarked)
Qu. Min IC50? I | II Bench note: the answer is the label of the chosen record.
Ans. II
(II: 244 nM, I: 835 nM)

====

- target: CCR5 (Homo sapiens)
- methodNotes: Human CCR5 receptor-ligand binding (RANTES) assay
- Parameters: expressed in transfected cells
- reportedConditions: 125I RANTES 0.1 nM, CHO-Gα16-hCCR5 cells
pIC50: −log10 of the molar value.
property: pIC50

Cc1cc(C#N)nc(C)c1C(=O)N1CC2CN(CCC3(c4ccccc4)CCN(C(=O)C(C)(C)C)C3)CC2C1 (centres unmarked): 7.16
Cc1ncnc(C)c1C(=O)N1CC2CN(CCC3(c4ccccc4)CCN(C(=O)c4cccc(S(=O)(=O)N(C)C)c4)CC3)CC2C1 (centres unmarked): 7.32

(1) Cc1ncnc(C)c1C(=O)N1CC2CN(CCC3(c4ccccc4)CCN(C(=O)c4ccc(S(N)(=O)=O)cc4)CC3)CC2C1 (centres unmarked)
(2) Cc1ncnc(C)c1C(=O)N1CC2CN(CCC3(c4cccc(F)c4)CCN(C(=O)c4cccc(S(=O)(=O)N(C)C)c4)CC3)CC2C1 (centres unmarked)
(3) Cc1cc(=O)oc(C)c1C(=O)N1CC2CN(CCC3(c4ccccc4)CN(C(=O)C4CCC(F)(F)CC4)C3)CC2C1 (centres unmarked)
Qu. List the 3 entries from lowest pIC50 to highest pIC50 value. Output spec: a listing of the labels in the requested order.
Ans. 1, 2, 3
